System: HCC-2998 colon
protocol-summary: NCI tumour cell line growth inhibition, 48 h; in the data active = GI50 below about 0.43 µM; inactive = the rest
Select the matching outcome among active, inactive

Illustrative cases are given below, each with its answer.
COc1ccc(-c2cc(-c3ccc(Cl)cc3)nc(SCCCC(=O)NO)n2)cc1 = inactive
C=C1C(=O)O[C@H]2[C@H]1CC/C(COC(=O)C(=O)c1cn(C)c3ccc(Cl)cc13)=C\CC[C@@]1(C)O[C@@H]21 = inactive
COC(=O)c1cc2c3ccccc3n3c(=O)c4cc5ccccc5nc4c(n1)c23 = inactive
CC(C)C[C@H](NC(=O)Cn1ccc(NCc2ccccc2)cc1=O)B(O)O = inactive
COc1ccc(-c2cc(-c3cccn3C)c(C#N)c(=O)[nH]2)cc1OC = inactive

Please state the recorded outcome for this molecule: "O=C1NC(=O)C(c2ccccc2Cl)=C1Nc1cc(Cl)c(O)c(Cl)c1"
inactive

Recorded test outcome, item "O=C(O)c1ccc(Oc2nccc(-c3c(-c4ccc(F)cc4)ncn3C3CCNCC3)n2)cc1"
inactive

Could you please tell me the result logged for C=C(NC(=O)C(=C)NC(=O)c1csc(C2=NC3c4csc(n4)C4NC(=O)c5csc(n5)C(C(C)(O)C(C)O)NC(=O)C5CSC(=N5)C(=CC)NC(=O)C(C(C)O)NC(=O)c5csc(n5)C3(CC2)NC(=O)C(C)NC(=O)C(=C)NC(=O)C(C)NC(=O)C(C(C)CC)NC2C=Cc3c(C(C)O)cc(nc3C2O)C(=O)OC4C)n1)C(N)=O (stereo unspecified) in this assay?
inactive

For this molecule, state the assay outcome: N#CC1=C(N)Oc2c(ccc3ccccc23)C1c1ccccc1 (stereo unspecified)
active

Any idea what this test logged for "Cc1ccc2c(-c3ccnc(Nc4ccccc4)n3)c(-c3ccc(F)cc3)nn2n1" ?
inactive

Dear all, I need the recorded test outcome for "Nc1c2c(c(O)c3c1=C(CO)C=N3)=NCCS2" , thank you.
active
